// data source = patent US20260272979A1

target: T1, PD-L1 fuse-expressed with an Fc derived from human IgG1 (human, UniProt Q9NZQ7 19-239); assay: SPR Biacore T200
T1 construct: Bought reagent; also called PD-L1-Fc; hPD-L1-Fc; not shown: Fc of human IgG1
T1 sequence (Q9NZQ7 19-239 limits assumed): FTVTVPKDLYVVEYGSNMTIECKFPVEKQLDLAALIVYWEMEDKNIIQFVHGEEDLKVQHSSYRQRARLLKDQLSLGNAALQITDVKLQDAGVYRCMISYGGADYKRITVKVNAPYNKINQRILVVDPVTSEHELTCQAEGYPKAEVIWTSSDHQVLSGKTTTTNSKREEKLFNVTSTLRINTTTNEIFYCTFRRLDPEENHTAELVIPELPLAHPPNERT
experimental endpoint: Kd

>>> observed_measurement("Seq No. 4-RFc (PD-1 variant PD1_56#-3 fused to rabbit IgG Fc) (Fc fusion, Signal peptide 1-20 left out; several higher bands in non-reducing SDS-PAGE; also called variant 3; Mut3/56#-3; not shown: rabbit IgG Fc (RFc) of vector pcDNA3.4-RFc) PGWFLDSPDRPWNPPTFSPALLVVTEGDNATFTCSFSNTSESFVLNWYRMSPSNQTDKLAAFPWMFCFPGQDCRFRVTQLPNGRDFHMSVVRARRNDSGTYLCGAISLSTPVWIKESLRAELRVTERRAEVPTAH")
"39.6 nM"
